Tested on: MOLM-13
assay name: cells
measurement setup: Homo sapiens, MOLM-13, 72 h
Mark rule met only for IC50 values smaller than 10 nM; exact matches and larger values are rule not met.

Use the examples below as a reference point.
In [3]: df
Out[3]:
                                  structure  class_assignment
0  Cc1sc2c(c1C)C(c1ccc(Cl)cc1)=N[C@@H](CC(=O)Nc1nccs1)c1nnc(C)n1-2      rule not met
1  Cc1sc2c(c1C)C(c1ccc(Cl)cc1)=N[C@@H](CC(=O)NCCc1c[nH]c3ccccc13)c1nnc(C)n1-2      rule not met
2  COC(=O)[C@H](Cc1c[nH]cn1)NC(=O)C[C@@H]1N=C(c2ccc(Cl)cc2)c2c(sc(C)c2C)-n2c(C)nnc21      rule not met

Below 10 nM on IC50? Entry "Cc1sc2c(c1C)C(c1ccc(Cl)cc1)=N[C@@H](CC(=O)NCc1ncco1)c1nnc(C)n1-2" rule met

Below 10 nM on IC50? Entry "Cc1sc2c(c1C)C(c1ccc(Cl)cc1)=N[C@@H](CC(=O)NCCO)c1nnc(C)n1-2" rule met

Below 10 nM on IC50? Entry "Cc1sc2c(c1C)C(c1ccc(Cl)cc1)=N[C@@H](CC(=O)NCc1ccccc1)c1nnc(C)n1-2" rule not met

---

system name: Bromodomain-containing protein 2 (Homo sapiens)
Sequence (P25440 whole entry): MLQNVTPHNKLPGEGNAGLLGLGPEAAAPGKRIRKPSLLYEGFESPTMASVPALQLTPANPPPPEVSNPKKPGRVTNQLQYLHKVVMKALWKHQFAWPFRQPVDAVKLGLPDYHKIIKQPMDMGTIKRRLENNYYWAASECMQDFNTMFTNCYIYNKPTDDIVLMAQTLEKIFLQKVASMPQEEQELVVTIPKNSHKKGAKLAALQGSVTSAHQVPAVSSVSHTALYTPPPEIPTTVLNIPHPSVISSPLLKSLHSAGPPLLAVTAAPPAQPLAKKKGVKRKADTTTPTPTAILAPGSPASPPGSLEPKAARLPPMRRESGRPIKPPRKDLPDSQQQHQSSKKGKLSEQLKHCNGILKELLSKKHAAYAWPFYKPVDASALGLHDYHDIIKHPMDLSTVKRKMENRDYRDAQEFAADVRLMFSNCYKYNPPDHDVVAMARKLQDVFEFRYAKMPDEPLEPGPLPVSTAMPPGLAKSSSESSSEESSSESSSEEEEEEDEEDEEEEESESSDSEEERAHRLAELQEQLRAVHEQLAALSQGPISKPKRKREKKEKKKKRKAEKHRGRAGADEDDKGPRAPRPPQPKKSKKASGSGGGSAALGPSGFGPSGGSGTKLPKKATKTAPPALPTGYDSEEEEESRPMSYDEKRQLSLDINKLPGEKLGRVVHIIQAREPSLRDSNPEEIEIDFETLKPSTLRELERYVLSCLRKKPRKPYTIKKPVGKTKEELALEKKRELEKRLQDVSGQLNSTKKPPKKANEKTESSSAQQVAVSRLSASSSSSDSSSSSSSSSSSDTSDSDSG
assay name: Inhibition of BRD2 BD1 (unknown origin) by TR-FRET assay
Below is a list of entries, each paired with its recorded IC50 value.

Example results:
>>> print(df.to_string())
                                  structure  measurement
0  Cc1sc2c(c1C)C(c1ccc(Cl)cc1)=N[C@@H](CC(=O)Nc1nccs1)c1nnc(C)n1-2        10 nM
1  Cc1sc2c(c1C)C(c1ccc(Cl)cc1)=N[C@@H](CC(=O)NCc1ccon1)c1nnc(C)n1-2         3 nM
2  Cc1sc2c(c1C)C(c1ccc(Cl)cc1)=N[C@@H](CC(=O)NCc1ccccn1)c1nnc(C)n1-2        16 nM
3  Cc1sc2c(c1C)C(c1ccc(Cl)cc1)=N[C@@H](CC(=O)NCc1ncco1)c1nnc(C)n1-2         9 nM
4  COC(=O)[C@H](Cc1c[nH]cn1)NC(=O)C[C@@H]1N=C(c2ccc(Cl)cc2)c2c(sc(C)c2C)-n2c(C)nnc21        32 nM

# query: IC50 of entry "Cc1sc2c(c1C)C(c1ccc(Cl)cc1)=N[C@@H](CC(=O)NCC(=O)O)c1nnc(C)n1-2" 146 nM

# query: IC50 of entry "Cc1sc2c(c1C)C(c1ccc(Cl)cc1)=N[C@@H](CC(=O)NCCc1c[nH]c3ccccc13)c1nnc(C)n1-2" 252 nM

# query: IC50 of entry "Cc1sc2c(c1C)C(c1ccc(Cl)cc1)=N[C@@H](CC(=O)NCc1c[nH]nn1)c1nnc(C)n1-2" 8 nM

# query: IC50 of entry "Cc1sc2c(c1C)C(c1ccc(Cl)cc1)=N[C@@H](CC(=O)NCc1cn(C)nn1)c1nnc(C)n1-2" 639 nM

# query: IC50 of entry "Cc1sc2c(c1C)C(c1ccc(Cl)cc1)=N[C@@H](CC(=O)NCc1cn(C)cn1)c1nnc(C)n1-2" 17 nM

# query: IC50 of entry "Cc1sc2c(c1C)C(c1ccc(Cl)cc1)=N[C@@H](CC(=O)NCc1ccccc1)c1nnc(C)n1-2" 21 nM
